Data origin: patent US9890129B2

- Tested on: SD rats
- test details: Feces excretion time and evaluation of efficiency (barium-containing diet, oral administration)
- Format: in vivo, rat
- reported conditions: 5 mg/kg
attribute measured: Percentage of subjects excreting feces within 10 hours (%)

• CCCCC1(CCCC)CN(c2ccc(OC)cc2)c2cc(SC)c(CNCC(=O)O)cc2S(=O)(=O)C1 = A @ 5 (A: 76-100%)
• CCCCC1(CCCC)CN(c2ccc(F)cc2)c2cc(SC)c(CNCC(=O)O)cc2S(=O)(=O)C1 = A @ 5 (A: 76-100%)
• CCCCC1(CCCC)CN(c2ccccc2)c2cc(SC)c(CNCC(=O)O)cc2S(=O)(=O)C1 = A @ 5 (A: 76-100%)
• CCCCC1(CCCC)CN(c2ccc(O)cc2)c2cc(SC)c(CNCC(=O)O)cc2S(=O)(=O)C1 = A @ 5 (A: 76-100%)
• CCCCC1(CCCC)CN(c2ccc(OC)c(F)c2)c2cc(SC)c(CNCC(=O)O)cc2S(=O)(=O)C1 = A @ 5 (A: 76-100%)

---

- System: SD rats
- test details: Feces excretion time and evaluation of efficiency (barium-containing diet, oral administration)
- Type: in vivo, rat
- reported conditions: 1 mg/kg, observed 10 hours
attribute measured: Feces excretion time (min) @ volume (mg/kg)

- CCCCC1(CCCC)CN(c2ccc(O)cc2)c2cc(SC)c(CNCC(=O)O)cc2S(=O)(=O)C1 [Example 20]: B @ 1 (B: 401-500 min)
- CCCCC1(CCCC)CN(c2ccc(OC)c(F)c2)c2cc(SC)c(CNCC(=O)O)cc2S(=O)(=O)C1 [Example 24]: C @ 1 (C: 501-590 min)
- CCCCC1(CCCC)CN(c2ccc(OC)cc2)c2cc(SC)c(CNCC(=O)O)cc2S(=O)(=O)C1 [Example 19]: C @ 1 (C: 501-590 min)
- CCCCC1(CCCC)CN(c2ccccc2)c2cc(SC)c(CNC(=O)CS(=O)(=O)O)cc2S(=O)(=O)C1 [Example 18]: B @ 1 (B: 401-500 min)
- CCCCC1(CCCC)CN(c2ccccc2)c2cc(SC)c(CNCC(=O)O)cc2S(=O)(=O)C1 [Example 1]: B @ 1 (B: 401-500 min)
- CCCCC1(CCCC)CN(c2ccc(F)cc2)c2cc(SC)c(CNCC(=O)O)cc2S(=O)(=O)C1 [Example 22]: B @ 1 (B: 401-500 min)
